Experimental System: ROB-1 β-lactamase, H. influenzae ATCC43334 (Haemophilus influenzae, UniProt P67918)
Sequence (P67918 34-305): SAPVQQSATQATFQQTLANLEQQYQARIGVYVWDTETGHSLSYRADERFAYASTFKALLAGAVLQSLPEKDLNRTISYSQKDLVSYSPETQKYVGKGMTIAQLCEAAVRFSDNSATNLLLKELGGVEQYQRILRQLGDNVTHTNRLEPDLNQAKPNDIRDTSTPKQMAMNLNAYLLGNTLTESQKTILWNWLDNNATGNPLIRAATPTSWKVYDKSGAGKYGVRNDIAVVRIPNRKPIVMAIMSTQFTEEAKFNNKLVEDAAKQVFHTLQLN
Assay: biochemical
pIC50: −log10 of the molar value.
pIC50 listing for selected compounds.
Measured Attribute: pIC50

O=C(O)[C@H]1/C(=C/CO)O[C@@H]2CC(=O)N21 [Clavulanate, lithium clavulanate]	7.40
CC1(C)[C@H](C(=O)[O-])N2C(=O)[C@@H](CO)[C@H]2S1(=O)=O.[Na+] [Na-HMPAS]	8.00

====

Assay: Plasma stability, rat plasma
Measured Attribute: half-life at 100 μM

CC1(C)[C@H](C(=O)[O-])N2C(=O)[C@@H](CO)[C@H]2S1(=O)=O.[Na+]	3.4 h

====

Assay: Plasma stability, dog plasma
Measured Attribute: half-life at 100 μM

CC1(C)[C@H](C(=O)[O-])N2C(=O)[C@@H](CO)[C@H]2S1(=O)=O.[Na+]	> 4 h

====

Experimental System: Sme-I β-lactamase, Serratia S6 (Serratia marcescens, UniProt P52682)
Sequence (P52682 28-294): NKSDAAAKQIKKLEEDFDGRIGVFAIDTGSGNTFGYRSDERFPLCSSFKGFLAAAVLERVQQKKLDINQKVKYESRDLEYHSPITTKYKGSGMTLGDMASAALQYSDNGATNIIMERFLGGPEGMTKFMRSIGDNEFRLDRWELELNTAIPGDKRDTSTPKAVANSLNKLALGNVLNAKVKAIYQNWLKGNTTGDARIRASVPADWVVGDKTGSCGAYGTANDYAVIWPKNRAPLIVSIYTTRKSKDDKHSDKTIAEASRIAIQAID
Assay: biochemical
pIC50: −log10 of the molar value.
pIC50 listing for selected molecules.
Measured Attribute: pIC50

CC1(C)[C@H](C(=O)[O-])N2C(=O)[C@@H](CO)[C@H]2S1(=O)=O.[Na+]	6.17
O=C(O)[C@H]1/C(=C/CO)O[C@@H]2CC(=O)N21 [Clavulanate, lithium clavulanate]	4.71

====

Assay: in vitro
Condition Set: mouse, plasma
Measured Attribute: half-life at 100 μM

O=C(O)[C@H]1/C(=C/CO)O[C@@H]2CC(=O)N21 [Clavulanate, lithium clavulanate]	> 4 h
CC1(C)[C@H](C(=O)OCOC(=O)OC2CCOCC2)N2C(=O)[C@@H](CO)[C@H]2S1(=O)=O [Prodrug 1]	< 0.0333 h

====

Assay: Plasma stability, mouse plasma
Measured Attribute: half-life at 100 μM (h)

CC1(C)[C@H](C(=O)[O-])N2C(=O)[C@@H](CO)[C@H]2S1(=O)=O.[Na+] [Na-HMPAS]	3.9

====

Experimental System: BRO-1 β-lactamase, M. catarrhalis 87A1115 (Moraxella catarrhalis, UniProt Q59514)
Sequence (Q59514 26-313): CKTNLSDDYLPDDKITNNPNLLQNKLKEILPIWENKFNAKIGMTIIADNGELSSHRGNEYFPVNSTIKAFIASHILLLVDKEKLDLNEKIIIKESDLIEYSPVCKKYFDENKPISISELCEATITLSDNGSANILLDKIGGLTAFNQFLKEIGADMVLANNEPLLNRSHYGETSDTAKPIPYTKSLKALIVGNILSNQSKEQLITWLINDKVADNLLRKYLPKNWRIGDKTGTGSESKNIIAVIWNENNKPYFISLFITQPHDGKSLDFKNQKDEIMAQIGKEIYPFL
Assay: biochemical
IC50 listing for selected compounds.
Measured Attribute: IC50 (nM)

O=C(O)[C@H]1/C(=C/CO)O[C@@H]2CC(=O)N21 [Clavulanate, lithium clavulanate]	140
CC1(C)[C@H](C(=O)[O-])N2C(=O)[C@@H](CO)[C@H]2S1(=O)=O.[Na+] [Na-HMPAS]	143

====

Assay: in vitro
Condition Set: rat, plasma
Measured Attribute: half-life at 100 μM (h)

O=C(O)[C@H]1/C(=C/CO)O[C@@H]2CC(=O)N21 [Clavulanate, lithium clavulanate]	3.3

====

Assay: in vitro
Condition Set: monkey, plasma
Method: The incubation consisted of 990 μl of plasma preincubated for 5 minutes at 37° C. in a 96-well heat block. The incubation was initiated with the addition of 10 gl of a 10 mM stock of compound in 100% methanol. Serial aliquots (100 μl) were removed and transferred to 200 μl of 75/25 acetonitrile/3% perchloric acid at 0, 1, 2, 5, 10, 20, 30, and 60 minutes. […]
Measured Attribute: half-life at 100 μM (h)

O=C(O)[C@H]1/C(=C/CO)O[C@@H]2CC(=O)N21 [Clavulanate, lithium clavulanate]	3.6
